TARGET_OR_TEST_SYSTEM: mouse TRPV2 (mTRPV2) (Mus musculus, UniProt Q9WTR1)
Construct: expressed in transfected cells
Sequence (Q9WTR1 whole entry): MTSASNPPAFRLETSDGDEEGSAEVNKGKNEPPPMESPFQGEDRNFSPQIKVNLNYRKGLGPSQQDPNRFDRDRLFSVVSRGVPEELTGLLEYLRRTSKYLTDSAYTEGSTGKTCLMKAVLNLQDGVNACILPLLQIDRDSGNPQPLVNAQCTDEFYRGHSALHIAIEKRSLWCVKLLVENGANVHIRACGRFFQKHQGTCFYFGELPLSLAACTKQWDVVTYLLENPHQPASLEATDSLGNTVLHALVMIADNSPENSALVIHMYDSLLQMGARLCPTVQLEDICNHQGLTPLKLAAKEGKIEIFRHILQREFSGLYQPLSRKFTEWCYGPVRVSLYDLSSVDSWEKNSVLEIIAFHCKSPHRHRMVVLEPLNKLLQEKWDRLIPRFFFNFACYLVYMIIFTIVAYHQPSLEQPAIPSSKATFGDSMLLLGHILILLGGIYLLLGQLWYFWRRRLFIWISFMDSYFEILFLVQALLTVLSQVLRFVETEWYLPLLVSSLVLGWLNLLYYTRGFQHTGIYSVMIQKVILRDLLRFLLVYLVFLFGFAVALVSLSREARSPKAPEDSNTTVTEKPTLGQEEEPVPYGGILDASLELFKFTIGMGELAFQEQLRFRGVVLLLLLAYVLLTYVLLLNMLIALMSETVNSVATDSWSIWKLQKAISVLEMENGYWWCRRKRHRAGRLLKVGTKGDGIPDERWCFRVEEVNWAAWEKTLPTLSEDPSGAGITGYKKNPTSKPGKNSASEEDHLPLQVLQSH
TEST: Fluo-4 intracellular calcium assay, inhibition of 2APB-induced [Ca2+] response in CHO cells expressing mTRPV2
Format: cell-based
CONDITION_DESCRIPTION: inhibitory activity; CHO cells expressing mTRPV2; agonist 300 μM 2APB; preincubation 30 min at 37 °C; mean ± s.e.; read-out: EC50 (µM) mTRPV2
REPORTED_PROPERTY: EC50 (µM)
Give bare numbers, in µM.

Using the record for CCC/C=C\CC[C@@H](O)C[C@H]1CCC2=C(C(=O)OCCCCN(O)C(=N)N)[C@H](CC/C=C\CCC)NC(=N)N21 [Compound 2, urupocidin A] , report its EC50.
28.1
